Just for reference, patent US7105505B2 is where these values come from.

The following molecules each carry a recorded pKi for human histamine H3 receptor (Homo sapiens).
In textbook form, pKi equals minus log to base ten of the concentration in mol/L.

Example entries and their recorded answers appear below.
- molecule: "CSc1nc2cc(F)c(F)cc2n1C1CCN(C(=O)C2(F)CCN(Cc3ccnc(N)c3)CC2)CC1 [Example 574]"
  readout: "pKi"
  assay-result: 8.70
- molecule: "CCOc1nc2cc(F)ccc2n1C1CCN(C(=O)C2CCN(Cc3ccnnc3)CC2)CC1 [Example 512]"
  readout: "pKi"
  assay-result: 8.70
- molecule: "CCOc1nc2cc(Cl)ccc2n1C1CCN(C(=O)C2CCN(Cc3ccnnc3)CC2)CC1 [Example 592]"
  readout: "pKi"
  assay-result: 8.05
- molecule: "Nc1ncc(CN2CCC(C(=O)N3CCC(n4c(SCc5ccccc5)nc5cc(F)ccc54)CC3)CC2)cn1 [Example 547]"
  readout: "pKi"
  assay-result: 7.85
- molecule: "CCCSc1nc2cccnc2n1C1CCN(C(=O)C2CCN(Cc3ccnnc3)CC2)CC1 [Example 588]"
  readout: "pKi"
  assay-result: 8.22

IN: Specify pKi for COc1nc2cc(F)ccc2n1C1CCN(C(=O)C2(F)CCN(Cc3cnc(N)nc3)CC2)CC1 [Example 297] , system human histamine H3 receptor (Homo sapiens).
OUT: 8.40

IN: Specify pKi for CCCOc1nc2cc(F)ccc2n1C1CCN(C(=O)C2(F)CCN(Cc3cnc(N)nc3)CC2)CC1 [Example 459] , system human histamine H3 receptor (Homo sapiens).
OUT: 8.40

IN: Specify pKi for CCCc1nc2cc(F)ccc2n1C1CCN(C(=O)C2CCN(Cc3cnc(N)nc3)CC2)CC1 [Example 618] , system human histamine H3 receptor (Homo sapiens).
OUT: 8.05

IN: Specify pKi for CC(C)Oc1nc2cc(F)ccc2n1C1CCN(C(=O)C2(F)CCN(Cc3cnc(N)nc3)CC2)CC1 [Example 326] , system human histamine H3 receptor (Homo sapiens).
OUT: 8.70

* * *

The following compounds each carry a recorded Ki for human histamine H3 receptor (Homo sapiens, UniProt Q9Y5N1).
Please reply with the bare figure in nM and do not write the unit itself.

Example entries and their recorded answers appear below.
- compound: "CCc1nc2cc(F)ccc2n1C1CCN(C(=O)C2CCN(Cc3cnc(N)nc3)CC2)CC1 [Example 598]"
  target-desc: "human histamine H3 receptor (Homo sapiens, UniProt Q9Y5N1)"
  readout: "Ki"
  unit-spec: "nM"
  assay-result: 17
- compound: "CSc1nc2cc(F)ccc2n1C1CCN(C(=O)C2(F)CCN(Cc3cnc(N)nc3)CC2)CC1 [Example 290]"
  target-desc: "human histamine H3 receptor (Homo sapiens, UniProt Q9Y5N1)"
  readout: "Ki"
  unit-spec: "nM"
  assay-result: 3
- compound: "O=C(N1CCC(n2c(-c3ccccn3)nc3cc(F)ccc32)CC1)C1(F)CCN(Cc2ccnnc2)CC1 [Example 423]"
  target-desc: "human histamine H3 receptor (Homo sapiens, UniProt Q9Y5N1)"
  readout: "Ki"
  unit-spec: "nM"
  assay-result: 5
- compound: "CCCc1nc2cc(F)ccc2n1C1CCN(C(=O)C2CCN(Cc3ccnnc3)CC2)CC1 [Example 619]"
  target-desc: "human histamine H3 receptor (Homo sapiens, UniProt Q9Y5N1)"
  readout: "Ki"
  unit-spec: "nM"
  assay-result: 2
- compound: "Nc1cc(CCCN2CCC(C(=O)N3CCC(n4c(-c5ccccn5)nc5cccnc54)CC3)CC2)ccn1 [Example 608]"
  target-desc: "human histamine H3 receptor (Homo sapiens, UniProt Q9Y5N1)"
  readout: "Ki"
  unit-spec: "nM"
  assay-result: 1

IN: Item CCCOc1nc2cc(F)ccc2n1C1CCN(C(=O)C2CCN(Cc3cnc(N)nc3)CC2)CC1 [Example 460] : provide Ki
OUT: 4

IN: Item CCOc1nc2cccnc2n1C1CCN(C(=O)C2(F)CCN(Cc3cnc(N)nc3)CC2)CC1 [Example 316] : provide Ki
OUT: 5

IN: Item CCc1nc2cc(F)ccc2n1C1CCN(C(=O)C2(F)CCN(Cc3cnc(N)nc3)CC2)CC1 [Example 468] : provide Ki
OUT: 10

* * *

# target-desc: human histamine H3 receptor (Homo sapiens)
# Sequence (Q9Y5N1 whole entry): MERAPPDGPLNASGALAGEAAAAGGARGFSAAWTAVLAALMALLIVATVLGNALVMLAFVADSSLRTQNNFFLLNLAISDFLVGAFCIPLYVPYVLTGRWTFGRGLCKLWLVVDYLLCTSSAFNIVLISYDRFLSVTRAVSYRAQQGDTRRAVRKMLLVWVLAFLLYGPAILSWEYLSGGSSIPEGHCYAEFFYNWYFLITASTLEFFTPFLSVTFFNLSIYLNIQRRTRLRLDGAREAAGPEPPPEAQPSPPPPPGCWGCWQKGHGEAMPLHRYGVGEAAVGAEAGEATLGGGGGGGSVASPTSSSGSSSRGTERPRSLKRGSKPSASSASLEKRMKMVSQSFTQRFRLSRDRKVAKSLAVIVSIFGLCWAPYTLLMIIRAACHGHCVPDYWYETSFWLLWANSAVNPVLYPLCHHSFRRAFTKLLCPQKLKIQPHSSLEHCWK
readout: pKi
In textbook form, pKi equals minus log to base ten of the concentration in mol/L.

Example entries and their recorded answers appear below.
- compound: "O=C(C1CCN(Cc2ccnnc2)CC1)N1CCC(n2c(-c3ccccn3)nc3cc(Cl)ccc32)CC1 [Example 557]"
  pKi: 7.72
- compound: "CSc1nc2cc(Cl)ccc2n1C1CCN(C(=O)C2(F)CCN(Cc3cnc(N)nc3)CC2)CC1 [Example 625]"
  pKi: 8.00
- compound: "Nc1cc(CN2CCC(C(=O)N3CCC(n4c(-c5ccccn5)nc5cc(F)ccc54)CC3)CC2)ccn1 [Example 1]"
  pKi: 9.00

Alright, here's another compound for you.
IN: Specify pKi for O=C(C1CCN(Cc2cc[nH]n2)CC1)N1CCC(n2c(-c3ccccn3)nc3cc(F)ccc32)CC1 [Example 442] , system human histamine H3 receptor (Homo sapiens).
OUT: 9.00

* * *

# pKi per entry
# target-desc: H3 receptors (Cavia porcellus)
# Construct: The source of the H3 receptors in this experiment was guinea pig brain; from tissue; host or cells: guinea pig brain membranes
# Sequence (Q9JI35 whole entry): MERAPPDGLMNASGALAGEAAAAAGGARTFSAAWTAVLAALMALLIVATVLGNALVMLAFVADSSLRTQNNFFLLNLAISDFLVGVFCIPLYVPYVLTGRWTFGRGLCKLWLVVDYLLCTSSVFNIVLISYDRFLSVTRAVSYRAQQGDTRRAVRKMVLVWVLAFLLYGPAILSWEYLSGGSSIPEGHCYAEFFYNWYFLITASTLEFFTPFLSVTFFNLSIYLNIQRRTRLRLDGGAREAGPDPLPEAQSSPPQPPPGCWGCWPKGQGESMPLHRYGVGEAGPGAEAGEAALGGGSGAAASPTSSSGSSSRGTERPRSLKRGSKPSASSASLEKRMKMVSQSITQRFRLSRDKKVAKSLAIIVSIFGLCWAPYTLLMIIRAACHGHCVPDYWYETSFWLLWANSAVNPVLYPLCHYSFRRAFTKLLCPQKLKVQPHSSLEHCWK
# assay-details: H3 Receptor Binding Assay (guinea pig brain membranes)
# measurement-parameters: Receptor Source Guinea pig, [3H]R-α-methyl histamine or [3H]Nα-methyl histamine
In textbook form, pKi equals minus log to base ten of the concentration in mol/L.

Example entries and their recorded answers appear below.
- smiles-representation: "Nc1ncc(CN2CCC(C(=O)N3CCC(n4c(-c5ccccn5)nc5cc(F)ccc54)CC3)CC2)cn1"
  pKi: 8.15
- smiles-representation: "Nc1cc(CN2CCC(C(=O)N3CCC(n4c(-c5cc(Cl)cc(Cl)c5)nc5ccc(Cl)cc54)CC3)CC2)ccn1"
  pKi: 7.52
- smiles-representation: "Nc1cc(CN2CCC(C(=O)N3CCC(c4nc5ccc(Cl)cc5[nH]4)CC3)CC2)ccn1"
  pKi: 7.89

Alright, here's another compound for you.
IN: Specify pKi for Nc1cc(CN2CCC(C(=O)N3CCC(n4c(-c5cc(-c6ccc(F)cc6)on5)nc5cccnc54)CC3)CC2)ccn1 , system H3 receptors (Cavia porcellus).
OUT: 8.00
